System: A549
Experiment: Antiproliferative activity against human A549 cells measured after 48 hrs by SRB assay
Type: functional
Hi there, I'd appreciate the recorded GI50 for every entry that follows.

[Q] Need GI50, item CC(C)c1cc(C(=O)N(Cc2ccc(Cl)cc2)c2ccc(Cn3c(=O)c(F)cn(C4CCCO4)c3=O)cc2)c(O)cc1O (stereo not drawn)
[A] 560 nM

[Q] Field request: GI50 | item: CC(C)c1cc(C(=O)Nc2ccc(Cn3c(=O)c(F)cn(C4CCCO4)c3=O)cc2)c(O)cc1O (stereo not drawn)
[A] > 10000 nM

[Q] Need GI50 of C=CCN(C(=O)c1cc(C(C)C)c(O)cc1O)c1ccc(Cn2c(=O)[nH]cc(F)c2=O)cc1 , thanks.
[A] 100 nM

[Q] Given the molecule CCNC(=O)c1noc(-c2cc(C(C)C)c(O)cc2O)c1-c1ccc(CN2CCOCC2)cc1 [LUMINESPIB] , what is its reported GI50?
[A] 10 nM

[Q] What value of GI50 has been reported for the following molecule? CC(C)c1cc(C(=O)N(Cc2ccc(C#N)cc2)c2ccc(Cn3c(=O)c(F)cn(C4CCCO4)c3=O)cc2)c(O)cc1O (stereo not drawn)
[A] 350 nM

[Q] Would you kindly share the measured GI50 for O=c1[nH]c(=O)n(C2CCCO2)cc1F (stereo not drawn) [TEGAFUR] ?
[A] > 50000 nM

[Q] # GI50 lookup, item C#CCN(C(=O)c1cc(C(C)C)c(O)cc1O)c1ccc(Cn2c(=O)[nH]cc(F)c2=O)cc1
[A] 30 nM

[Q] Need GI50, item CC(C)c1cc(C(=O)N(Cc2ccccc2)c2ccc(Cn3c(=O)c(F)cn(C4CCCO4)c3=O)cc2)c(O)cc1O (stereo not drawn)
[A] 800 nM
